endpoint name: melting point

Use the examples below as a reference point.
>>> df
                                   compound     value_reported
0  Cc1onc(-c2ccccc2)c1-c1ccc(S(=O)(=O)NC=O)cc1 [Example 60]      111 to 122 °C
1  Cc1onc(-c2ccccc2)c1-c1ccc(S(=O)(=O)NC(=O)OC(C)(C)C)cc1 [Example 62]      168 to 171 °C
2  CC(=O)NS(=O)(=O)c1ccc(-n2cc(C(F)(F)F)nc2-c2cncc(C)c2)cc1 [Example 3]      268 to 270 °C
3  CC(=O)NS(=O)(=O)c1ccc(-n2cc(C(F)(F)F)nc2-c2cccnc2)cc1 [Example 1]      244 to 246 °C
4  CCCCC(=O)NS(=O)(=O)c1ccc(-c2c(-c3ccccc3)noc2C)cc1 [Example 26]  134.1 to 136.5 °C
5  Cc1onc(-c2ccccc2)c1-c1ccc(S(=O)(=O)NC(=O)c2ccccc2)cc1 [Example 19]  208.8 to 210.2 °C
6  CC(=O)NS(=O)(=O)c1ccc(-c2c(-c3cccc(F)c3)noc2C)cc1 [Example 13]      144 to 145 °C
7  CCOCC(=O)NS(=O)(=O)c1ccc(-c2c(-c3ccccc3)noc2C)cc1.[Na]    207.2 to 210 °C

stdin: Tell me the measured melting point of CC(=O)NS(=O)(=O)c1ccc(-c2c(-c3ccccc3)noc2CO)cc1 [Example 74] , please.
stdout: 94 to 103 °C
